Test: soluble on expression in E. coli; label from the status in PepcDB or PDB records
Parameter Measured: soluble on expression in E. coli

• GPGSMDVVATPLWSSPPCGSPMAGTVSSGNPLFHVGRSYYRSAAKAYNMTRYVVESLKLDETVLATSMAYWHTFVDRLELRKFDEIVLSASCVFLASKVEHYKVRLNRVIALVFEISGEGDEMEGWRRMLLEMELLVCHTLGFNFQIIHPMKRIVELVPEDHTQVLECAHRLFLLSFMTPLCVRVPADEVAEALVYLAADGAGQLEPYAGKFRCDAVERREGIINVMIDALAVMRKNTSLPKVDDMIVARRKRMREQESFRPSVAHSSGGTGSLDVTPSAFLVE = soluble
• MSLSKLDIPLSIMQKSVVIRPGGRQEMDEHVAIETPYAIALNDRVIGSSMVLPVDLEEFGAGFLFGQGYIKKAEEIREILVCPQGRISVYADVENEEPREVIITSGCGGTGKIPKEMLEGEFAPLADYCLPFAEIKSFIREALHSSPLGPQTHCVHGCGLWNNGRLQVYHEDVGRHNAVDKVLGSILLGRASNNSAVYTTGRLTSDMVLKCARIGIPIIMSRTSPSSLGLALAKRSGATLVAYSRPERINVFNAPERILTEGHHHHHH = soluble
• MKNVLILGAGGQIARHVINQLADKQTIKQTLFARQPAKIHKPYPTNSQIIMGDVLNHAALKQAMQGQDIVYANLTGEDLDIQANSVIAAMKACDVKRLIFVLSLGIYDEVPGKFVEWNNAVIGEPLKPFRRAADAIEASGLEYTILRPAWLTDEDIIDYELTSRNEPFKGTIVSRKSVAALITDIIDKPEKHIGENIGINQPGTDGDKPFFM = soluble
• MLNLCDEDFDAMELVEGALALNKAINPETQLEWAHIELARLLKEAELALVHERDEKARFEAFLRLFYQEWGFSGDREAYFDSRNAFIDQVLQRRKGIPVSLGSLLLYLGHKLGFPLNGISFPTQFLLSLNWSGERPIYLNPFNGEIVSQHTLQAWLVGHKGPLAKLKPQHLQSVDNPTIIGRWLALLKSALLREERYTLALRCTDLALTFVPDDPYEIRDRGFIYQQLQCHQIAISDYQYFIEHCPNDPAAELLKTQVNALSHDSQVTLHLEHHHHHH = soluble
• MSLRWQWRIYEEPLQEPLTTAQGVWRSRSGIYLRLEDEQGQVGYGEIAPLPGWGSETLNADIALCQQLPGHLTPEIMATIPEALPAAQFGFATAWQSVGRLPYRVRPWPICALLGSGQAALEQWQQSWQRGQTTFKWKVGVMSPEEEQAILKALLAALPPGAKLRLDANGSWDRATANRWFAWLDRHGNGKIEYVEQPLPPDQWQALLSLAQTVTTAIALDESVVSAAEVQRWVDRGWPGFFVIKTALFGDPDSLSLLLRRGLEPQRLVFSSALEGAIARTAIFHLLETWQPCHALGFGVDRWRSAPLLTTLTAYERLWERLDQGHHHHHH = soluble
• MPTKVLVNATYLHSYFREWVKGNIWIHGDRIVYAGERLPDRIDESCEIIDCRGYVLVPGYIEPHVHPFQLYNPHSFARYAAMYGTTTLLNDNLFFLLQLEHHHHHH = not soluble
• MGSDKIHHHHHHMSINFDLNDLQAFRAVVENGSFRKAAESVRITQPALSRRIEKLESALNVKLFERTTRKVSLTTVGRAFLPQVERILDDLDIALMTIGEVGSTRMGSVTIACVPSAAYYFMPQVISAFREDYPKIRVKVLDASANEVNSAVALGEADFGVSFSGNLAPEVDFELLLQERYVMACRRDHSLAIRESVSWEEMYSHDYIALDITSGNRLVLDQALARSRPHKESICETRHVTTMIGLVEAGLGVAAVPSIAMPMTAHPFLVSVPLVEPEVIRNVGLIKRRGRTLTPAALELEQLVRKMPFRSAGN = not soluble
• MTADALVRAPAEPTHPIREWTTVFVGTGDEHLVVAEGPKHRDWRKIGNVFREPARTAVLGLIRTCIADRELKIETFEGKVADALGPVAAAHPILTPDKSVVVAVQIWSGDPKKNPPDRPNVGAWEWVLSSEDNPPPPQLQLDPGAIELIGMSTRHQDRSVFGPADLYTRSARLSDTLRHVRQIRDCQVKDRFDGTFTIRAEADVTRELRYAERCVEGPAGRRVRGICWDAGTDEALVHESMLDAWLSTMLASTSGMYIAVGDLSYQYPYWLKWVTEHVPGLGHGVSTGQTFALHEEDWPKIIEWVQQVRKGPVSGTVRARRGGGGWLKAEFRGFLLDPLVSDSIGVAVISPEIETIPDETS = not soluble
• MGSDKIHHHHHHMDGEGMSVGHYENFPVGSLILPRRLRKPVHAVYAFARTADDMADEGSMPSEARLSGLEGLRRELDVLASGGRSAHPLIARLDAEAVVPFGLDLQPFYDLLSAFSQDVVKTRYAHFGDLTDYCRRSANPVGRIMLALYGKTDAVCVAQSDGICTALQLVNFWQDVAVDWQKGRVYIPQDDLLKFGVSEEQIAAGRADAAFQRLMAYECRRAFRMLKAGSPLARELKGRIGLELRMIVLGAQLILQKLDACRYDVFAQRPVLDKKDWLIMLKRALWK = not soluble
• MGSDKIHHHHHHMLLHLSTWQEVEAYLQQSKGIIFPIGSTEQHGPTGLIGTDAICAEAIAAGVGDATGAIVGPTINVGMALHHTAFPGTISLRPSTLIQVVRDYVTCLAKAGFSKFYFINGHGGNIATLKAAFSETYAHLEDLQIANAQQVQCQVANWFMCGSVYKLAKELYGDQEGSHATPSEVALTQYVYPEAIKQAPLSPEVASGHRIYSAADFRVRYPDGRMGSNPGLATPEHGKQFYDLAVKELSNGYLEFVNAD = not soluble

Next up:
Recorded soluble on expression in E. coli of `MGSDKIHHHHHHMTKEQNSTENLDFQSPSDDTNLEGDFTADIVALAAKVEVQIQKIAERQRQISAKVQIPQPVEKIWKVLTDYEALPDFLPNLAKSRLIEHPNGGIRLEQVGSQRLLNFNFSARVVLDLEECFPREINFRMVEGDFKGFSGSWCLEPYSLGEYIGTNLCYTIQVWPKLTMPVGIIENRLSKDLRLNLVAIHQRVEELANKQPYI` , please.
not soluble
